Reference for the values: the supplement of paper PMC3545927

Molecular target: furin, P09958;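 note: purified furin at 1:10 enzyme:substrate in 50 mM HEPES pH 7.5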
Sequence (P09958 whole entry): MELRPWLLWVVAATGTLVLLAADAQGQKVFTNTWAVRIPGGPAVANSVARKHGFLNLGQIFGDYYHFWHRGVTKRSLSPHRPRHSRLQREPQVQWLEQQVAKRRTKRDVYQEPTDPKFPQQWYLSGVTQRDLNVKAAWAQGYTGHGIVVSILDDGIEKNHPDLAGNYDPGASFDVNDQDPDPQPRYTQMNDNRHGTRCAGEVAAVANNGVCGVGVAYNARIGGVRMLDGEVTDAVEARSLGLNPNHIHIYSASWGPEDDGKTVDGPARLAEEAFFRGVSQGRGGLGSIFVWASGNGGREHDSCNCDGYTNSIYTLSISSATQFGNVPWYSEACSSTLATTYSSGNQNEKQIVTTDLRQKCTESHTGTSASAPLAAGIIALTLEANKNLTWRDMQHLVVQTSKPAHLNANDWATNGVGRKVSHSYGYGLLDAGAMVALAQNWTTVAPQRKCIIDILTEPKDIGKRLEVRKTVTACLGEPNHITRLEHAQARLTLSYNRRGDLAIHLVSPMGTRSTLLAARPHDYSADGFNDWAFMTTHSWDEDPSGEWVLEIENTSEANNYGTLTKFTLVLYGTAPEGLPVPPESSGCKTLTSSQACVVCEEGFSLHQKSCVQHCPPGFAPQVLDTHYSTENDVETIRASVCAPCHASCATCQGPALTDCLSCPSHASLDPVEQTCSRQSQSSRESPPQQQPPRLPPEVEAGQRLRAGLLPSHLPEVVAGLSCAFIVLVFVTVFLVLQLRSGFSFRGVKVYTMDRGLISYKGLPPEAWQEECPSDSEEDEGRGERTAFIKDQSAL
Assay: furin cleavage Z-score vs untreated control; higher = more cleavage, active = 3.5 or more, inactive = 1 or less, 8 variable residues between constant flanks
Conditions: 15 min
The other results are listed elsewhere or left out. The true hit rate is not given.
Classification field: enter 1 for furin cleavage Z-score values not below -0.006, -1 for values below it.

RECORD_SEQUENCE	GROUP
CAGGPLTNSRAGNASASA [HC1502]	1

Can CALRYRHKRIAGNASASA [FS-1541] be said to have furin cleavage Z-score at or above -0.006?
1

Can CAKDVVCCSMAGNASASA [HC2114] be said to have furin cleavage Z-score at or above -0.006?
1

Can CARPGRRVCAAGNASASA [FS-3259] be said to have furin cleavage Z-score at or above -0.006?
-1

Can CARAHRSVLAAGNASASA [FS-1943] be said to have furin cleavage Z-score at or above -0.006?
-1

Can CAVAHLHAPTAGNASASA [HC773] be said to have furin cleavage Z-score at or above -0.006?
-1

Can CAVVACSMSYAGNASASA [HC2023] be said to have furin cleavage Z-score at or above -0.006?
1

Can CASMVGNWAKAGNASASA [HC342] be said to have furin cleavage Z-score at or above -0.006?
1

Can CALRYRHKRLAGNASASA [FS-1542] be said to have furin cleavage Z-score at or above -0.006?
1

Can CAIPKRLRRSAGNASASA [FS-35] be said to have furin cleavage Z-score at or above -0.006?
1

Can CAKRWRRGRAAGNASASA [FS-1596] be said to have furin cleavage Z-score at or above -0.006?
1

Can CARFHRACRLAGNASASA [FS-1257] be said to have furin cleavage Z-score at or above -0.006?
1

Can CACEMEECSQAGNASASA [HC1800] be said to have furin cleavage Z-score at or above -0.006?
1

Can CATRDPTTPLAGNASASA [HC1563] be said to have furin cleavage Z-score at or above -0.006?
-1

Can CARPGRRGRPAGNASASA [FS-492] be said to have furin cleavage Z-score at or above -0.006?
-1
